# assayed.target: T1, human E-selectin coated on the plate of the competition binding ELISA (human, UniProt P16581 22-556, limits assumed)
# T1 sequence (looked up): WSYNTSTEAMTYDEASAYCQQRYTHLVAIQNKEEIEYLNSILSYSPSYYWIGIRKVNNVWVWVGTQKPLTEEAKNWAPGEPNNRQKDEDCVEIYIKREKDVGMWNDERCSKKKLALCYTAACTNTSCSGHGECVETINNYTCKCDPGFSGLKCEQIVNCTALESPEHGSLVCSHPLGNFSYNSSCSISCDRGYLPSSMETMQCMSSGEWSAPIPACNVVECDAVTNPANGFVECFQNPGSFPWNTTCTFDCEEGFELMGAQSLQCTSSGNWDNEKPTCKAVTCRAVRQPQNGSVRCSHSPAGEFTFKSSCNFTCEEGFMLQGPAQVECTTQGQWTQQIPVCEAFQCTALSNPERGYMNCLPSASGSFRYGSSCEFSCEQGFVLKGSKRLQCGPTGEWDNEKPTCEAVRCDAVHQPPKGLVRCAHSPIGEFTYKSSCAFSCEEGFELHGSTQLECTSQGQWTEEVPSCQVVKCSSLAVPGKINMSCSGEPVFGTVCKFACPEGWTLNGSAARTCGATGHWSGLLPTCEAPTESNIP
# protocol: competition ELISA (Biotin-164 competitive ELISA) on plate-coated human E-selectin; competitor: biotinylated antibody 0164, OD450; forced degradation samples T0, T2, T4 weeks at 40 C in Tris, His or Glu buffer
assay.readout: IC50 (read off the curve)

Past entries and their recorded results:
binder	IC50 (read off the curve)
optimized anti-E-selectin antibody 1444 (antibody, human IgG1, kappa, V domains shown, effector-null human IgG1, kappa) VH: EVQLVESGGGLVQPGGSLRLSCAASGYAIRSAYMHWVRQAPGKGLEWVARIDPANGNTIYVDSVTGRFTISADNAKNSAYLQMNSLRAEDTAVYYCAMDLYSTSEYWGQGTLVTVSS VL: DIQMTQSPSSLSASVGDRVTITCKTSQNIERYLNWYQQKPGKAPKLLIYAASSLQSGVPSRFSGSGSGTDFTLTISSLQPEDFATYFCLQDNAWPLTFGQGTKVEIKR	~10 nM
optimized anti-E-selectin antibody 1282 (antibody, human IgG1, kappa, V domains shown, effector-null human IgG1, kappa) VH: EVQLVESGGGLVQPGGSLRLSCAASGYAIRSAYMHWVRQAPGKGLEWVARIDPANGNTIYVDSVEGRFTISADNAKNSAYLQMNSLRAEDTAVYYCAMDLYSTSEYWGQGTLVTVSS VL: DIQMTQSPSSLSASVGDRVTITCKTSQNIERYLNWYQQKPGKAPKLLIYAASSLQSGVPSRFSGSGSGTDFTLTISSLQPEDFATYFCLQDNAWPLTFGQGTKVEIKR	~10 nM
optimized anti-E-selectin antibody 1448 (antibody, human IgG1, kappa, V domains shown, effector-null human IgG1, kappa) VH: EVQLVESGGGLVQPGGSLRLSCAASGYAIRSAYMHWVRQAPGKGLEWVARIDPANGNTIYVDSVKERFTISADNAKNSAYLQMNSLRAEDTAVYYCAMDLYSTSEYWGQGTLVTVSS VL: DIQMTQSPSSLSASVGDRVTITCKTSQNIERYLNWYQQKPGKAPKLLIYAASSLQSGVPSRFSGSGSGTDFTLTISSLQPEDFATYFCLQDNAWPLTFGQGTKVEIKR	~9 nM

Proceed to the following item.
Inquiry: For optimized anti-E-selectin antibody 1284 (antibody, human IgG1, kappa, V domains shown, effector-null human IgG1, kappa) VH: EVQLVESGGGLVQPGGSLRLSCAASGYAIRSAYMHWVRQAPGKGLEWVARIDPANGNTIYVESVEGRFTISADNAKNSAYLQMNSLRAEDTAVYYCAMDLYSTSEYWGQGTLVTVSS VL: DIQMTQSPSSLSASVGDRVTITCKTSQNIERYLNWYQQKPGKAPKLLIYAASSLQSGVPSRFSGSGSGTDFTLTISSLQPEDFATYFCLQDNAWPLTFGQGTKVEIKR , what is its reported IC50 (read off the curve)?
Reply text: ~10 nM

Sourced from patent US20240076386A1
